# protocol.description: small-molecule microarray binders of probe aWnt5a, primary screen, biochemical, biotinylated probe, 635/667 nm fluorescence (AID 1113);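 further: score merges 667 nm fluorescence intensity with signal-to-noise per printed feature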
# details: higher = more signal
Recorded measurements of composite z-score, one per entry

[
  {
    "molecule": "CC1(C)[C@@H]2CC(C(O)C3C=CC4C(=O)N(c5ccccc5)C(=O)C4N3Nc3ccccc3)=C[C@H]1C2 (stereo partly specified)",
    "composite z-score": 0.0044
  },
  {
    "molecule": "C=CCOC(=O)[C@H]1[C@@H]2C(=O)O[C@@H](c3ccccc3)[C@@H](c3ccccc3)N2[C@@H](c2ccc(OCCOC(=O)[C@@H]3C[C@@H]4C(=O)N[C@@H](CCCCN(C)C)C(=O)N4[C@@H]3c3ccc(O)cc3)cc2)[C@]12C(=O)Nc1ccc(I)cc12",
    "composite z-score": -0.113
  },
  {
    "molecule": "CCCCCN1CC=CC23O[C@@H]4/C=C\\CCCOC(=O)C4[C@H]2C(=O)N(CCCO)[C@@H]3C1=O (stereo partly specified)",
    "composite z-score": -0.128
  },
  {
    "molecule": "CC(C)c1ccc(NN2C(C(O)C(c3ccccc3)c3ccccc3)C=CC3C(=O)N(c4ccccc4)C(=O)C32)cc1 (stereo unspecified)",
    "composite z-score": 0.0279
  },
  {
    "molecule": "COc1ccc(C#Cc2ccc3c(c2)[C@]2(C(=O)N3)[C@H](c3ccccc3OCCO)N3[C@H](c4ccccc4)[C@H](c4ccccc4)OC(=O)[C@H]3[C@@H]2C(=O)O)cc1",
    "composite z-score": 0.0932
  },
  {
    "molecule": "C[C@@]1([C@@H](NC(=O)c2ccccc2)c2ccc(-c3ccccc3)cc2)C[C@H]1C1CCCCC1",
    "composite z-score": -0.006
  }
]

Reference source for all entries: PubChem BioAssay
